assay.name: Inhibition of HCV GT1b full-length NS3/4A protease D168A mutant using Ac-Glu-Glu-Val-Val-Ala-Cys-AMC as substrate and measured by fluorescence based assay
Set-up: species or system Hepacivirus hominis, subtype 1b
endpoint.label: IC50 (µM)
Just the number please, in µM, no unit attached.

// `CC(C)c1ccc(NC(=O)N[C@@H](Cc2c[nH]c3ccccc23)C(=O)NCCCN2CCCCC2)cc1` : IC50 value = 5.98

----------
System: Hepatitis C virus
assay.name: Antiviral activity against HCV GT-1a expressing NS5B C316Y mutant variant
Type: functional, organism-based, Hepacivirus hominis
assay.setup: subtype 1a
endpoint.label: EC50 (nM)
Give just the numeric value; nM need not be written.

Field EC50 (entry `CNC(=O)c1c(-c2ccc(F)cc2)oc2cc(N(C)S(C)(=O)=O)c(-c3ccc4c(n3)-c3cc5c(F)cccc5n3CO4)cc12` ) reads 2.3
